// reported IC50 per item
biological target: NF-kB p65/p50 heterodimer (RelA/NFKB1) (Homo sapiens, UniProt Q04206;P19838 Q04206:1-551,P19838:1-433); assay: EMSA; competition vs 32P 113/114 probe; conditions: protein: extract; tags: none; nuclear extract of LPS-stimulated THP-1 cells
Sequence (Q04206 whole entry, chain 1 of 2): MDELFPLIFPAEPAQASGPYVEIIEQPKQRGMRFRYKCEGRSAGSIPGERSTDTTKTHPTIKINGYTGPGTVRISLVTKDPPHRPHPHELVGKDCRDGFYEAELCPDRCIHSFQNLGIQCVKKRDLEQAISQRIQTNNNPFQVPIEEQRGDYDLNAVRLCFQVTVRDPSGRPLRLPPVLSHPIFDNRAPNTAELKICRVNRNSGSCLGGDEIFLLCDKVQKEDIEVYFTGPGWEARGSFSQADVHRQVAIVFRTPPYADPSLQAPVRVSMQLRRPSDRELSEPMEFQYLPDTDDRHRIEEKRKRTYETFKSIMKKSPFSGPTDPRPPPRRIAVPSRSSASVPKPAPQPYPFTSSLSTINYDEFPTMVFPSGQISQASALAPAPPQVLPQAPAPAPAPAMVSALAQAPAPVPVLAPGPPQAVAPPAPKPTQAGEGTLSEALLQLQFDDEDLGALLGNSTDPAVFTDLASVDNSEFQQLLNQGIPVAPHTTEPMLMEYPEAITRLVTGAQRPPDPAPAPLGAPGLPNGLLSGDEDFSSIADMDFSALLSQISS
Sequence (P19838 1-433, chain 2 of 2): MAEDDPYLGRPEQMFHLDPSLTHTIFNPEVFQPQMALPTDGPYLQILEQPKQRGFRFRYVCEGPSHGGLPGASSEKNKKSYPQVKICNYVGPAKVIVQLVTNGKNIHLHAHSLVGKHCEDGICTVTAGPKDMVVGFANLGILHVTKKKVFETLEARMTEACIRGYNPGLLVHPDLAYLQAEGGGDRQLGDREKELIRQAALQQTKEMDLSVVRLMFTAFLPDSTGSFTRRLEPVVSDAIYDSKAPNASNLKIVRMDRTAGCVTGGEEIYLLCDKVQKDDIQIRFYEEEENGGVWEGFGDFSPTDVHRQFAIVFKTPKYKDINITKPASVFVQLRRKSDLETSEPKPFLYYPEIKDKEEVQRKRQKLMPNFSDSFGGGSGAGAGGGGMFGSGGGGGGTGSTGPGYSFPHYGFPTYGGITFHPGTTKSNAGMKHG
Give just the number in fold molar excess; leave the unit off.

decoy 289 (dsDNA) DNA 1: TGAGGACTTTCCAGGC DNA 2: GCCTGGAAAGTCCTCA
93
decoy 207 L-Z (dsDNA) DNA 1: AGTTGAGGACTTTCCCAGGC DNA 2: GCCTGGGAAAGTCCTCAACT
20

We next turn to a different binder, shown below.
Q) Kindly indicate its recorded IC50. Item: decoy 295 (dsDNA) DNA 1: TGAGGACTTTCCAGGCTC DNA 2: GAGCCTGGAAAGTCCTCA
A) 92
